# Experimental system: human NTCP (Homo sapiens)
# Sequence (Q14973 whole entry): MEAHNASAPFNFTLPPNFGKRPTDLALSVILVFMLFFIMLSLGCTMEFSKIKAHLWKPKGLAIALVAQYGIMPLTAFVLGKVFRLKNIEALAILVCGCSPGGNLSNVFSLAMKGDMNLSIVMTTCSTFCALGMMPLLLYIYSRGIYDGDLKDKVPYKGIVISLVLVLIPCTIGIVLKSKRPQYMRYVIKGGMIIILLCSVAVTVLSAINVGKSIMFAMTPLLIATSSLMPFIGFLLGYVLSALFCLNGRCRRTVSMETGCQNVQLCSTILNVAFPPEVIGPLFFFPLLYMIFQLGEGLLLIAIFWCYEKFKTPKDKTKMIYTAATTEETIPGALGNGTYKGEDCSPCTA
# Assay procedure: Screening taurocholate uptake assay (96-well, [14C]taurocholate, 10 µM drug)
# Condition set: ranking score beside the functional and binding assay B-scores of the screen
Where a name gives a salt, the structure may show the parent alone.
Measure: Ranking score

Answered examples (2):
OC(c1cc(C(F)(F)F)nc2c(C(F)(F)F)cccc12)C1CCCCN1 (centres unmarked) [Mefloquine hydrochloride]; 704.329
C[C@@H]1CN([C@H]2CC[C@](C#N)(c3ccc(F)cc3)CC2)CC[C@]1(C(=O)O)c1ccccc1 [Levocabastine hydrochloride]; 801.329

Ranking score reported for this compound CC(N)C12CC3CC(CC(C3)C1)C2 (centres unmarked) [Rimantadine Hydrochloride] : 753.923

Record summary for NCCCNCCSP(=O)(O)O : reported Ranking score = 764.099

Measured Ranking score of Cc1onc(-c2ccccc2)c1-c1ccc(S(N)(=O)=O)cc1 : 650.385

Value of Ranking score reported for the compound NS(=O)(=O)c1cc2c(cc1Cl)NC(CC1CCCC1)NS2(=O)=O (centres unmarked) [Cyclopenthiazide] is 797.145

Input O=C(O)COCCN1CCN(C(c2ccccc2)c2ccc(Cl)cc2)CC1 (centres unmarked) [Cetirizine dihydrochloride] . Output Ranking score: 820.204

The compound listed as C[N+](C)(C)CCCCCC[N+](C)(C)C.O.O.[Br-].[Br-] [Hexamethonium dibromide dihydrate] shows Ranking score equal to 696.207
